Data origin: paper PMC6828636

- Study target: OAT1 (Homo sapiens)
- Sequence (Q4U2R8 whole entry): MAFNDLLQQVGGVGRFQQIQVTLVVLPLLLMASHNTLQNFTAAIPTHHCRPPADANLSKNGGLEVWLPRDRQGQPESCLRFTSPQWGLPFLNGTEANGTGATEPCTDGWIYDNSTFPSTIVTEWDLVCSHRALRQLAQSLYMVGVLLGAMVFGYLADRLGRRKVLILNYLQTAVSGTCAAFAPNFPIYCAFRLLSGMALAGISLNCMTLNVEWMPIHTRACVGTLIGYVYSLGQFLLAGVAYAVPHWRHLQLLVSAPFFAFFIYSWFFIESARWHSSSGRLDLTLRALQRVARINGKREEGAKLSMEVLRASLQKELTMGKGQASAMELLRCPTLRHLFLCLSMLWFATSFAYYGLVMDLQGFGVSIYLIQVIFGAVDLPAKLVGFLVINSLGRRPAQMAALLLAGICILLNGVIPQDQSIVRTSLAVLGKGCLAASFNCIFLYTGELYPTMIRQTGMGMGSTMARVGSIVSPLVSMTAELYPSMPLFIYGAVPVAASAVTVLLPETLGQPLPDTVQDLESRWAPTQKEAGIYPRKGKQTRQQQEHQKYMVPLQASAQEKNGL
- Assay details: OAT1 uptake inhibition in transfected HEK cells
- Type: in vitro ADME
pIC50: −log10 of the molar value.
Recorded metric: pIC50

The recorded pIC50 with OAT1 (Homo sapiens) for CC(O)c1cc(C(=O)N[C@@H](C)Cn2ccc(-c3ccc(C#N)c(Cl)c3)n2)[nH]n1 (stereo partly shown) [Darolutamide, darolutamide] was < 4.30

* * *

- Study target: CYP1A2 (Homo sapiens)
- Sequence (P05177 whole entry): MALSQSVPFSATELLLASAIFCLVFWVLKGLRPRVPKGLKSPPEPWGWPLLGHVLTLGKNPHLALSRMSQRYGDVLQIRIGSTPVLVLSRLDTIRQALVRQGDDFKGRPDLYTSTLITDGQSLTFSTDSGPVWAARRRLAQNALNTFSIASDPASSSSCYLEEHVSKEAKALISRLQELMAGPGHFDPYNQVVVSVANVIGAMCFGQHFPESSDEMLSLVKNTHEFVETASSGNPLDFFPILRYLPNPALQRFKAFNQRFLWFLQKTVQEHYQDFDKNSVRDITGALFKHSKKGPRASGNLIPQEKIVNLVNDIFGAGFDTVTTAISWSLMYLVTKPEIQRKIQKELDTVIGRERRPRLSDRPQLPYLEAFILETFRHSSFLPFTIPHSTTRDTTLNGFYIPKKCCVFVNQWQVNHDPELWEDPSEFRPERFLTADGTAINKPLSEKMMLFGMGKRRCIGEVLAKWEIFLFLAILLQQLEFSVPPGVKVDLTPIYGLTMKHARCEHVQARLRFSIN
- Assay details: biochemical
- Type: in vitro ADME
- Test context: read-out: IC50, CYP1A2; human liver microsomes; substrate phenacetin
pIC50: −log10 of the molar value.
Recorded metric: pIC50

C[C@H](O)c1cc(C(=O)N[C@@H](C)Cn2ccc(-c3ccc(C#N)c(Cl)c3)n2)n[nH]1 [(S,S)-darolutamide]
< 4.30
CC(=O)c1cc(C(=O)N[C@@H](C)Cn2ccc(-c3ccc(C#N)c(Cl)c3)n2)[nH]n1 [Keto-darolutamide, keto-darolutamide]
< 4.00

# input for lookup
The recorded pIC50 with CYP1A2 (Homo sapiens) for C[C@@H](Cn1ccc(-c2ccc(C#N)c(Cl)c2)n1)NC(=O)c1cc([C@@H](C)O)[nH]n1 [(S,R)-darolutamide] was < 4.30

* * *

- Study target: MATE2-K (Homo sapiens)
- Sequence (Q86VL8 1-566 isoform Q86VL8-3): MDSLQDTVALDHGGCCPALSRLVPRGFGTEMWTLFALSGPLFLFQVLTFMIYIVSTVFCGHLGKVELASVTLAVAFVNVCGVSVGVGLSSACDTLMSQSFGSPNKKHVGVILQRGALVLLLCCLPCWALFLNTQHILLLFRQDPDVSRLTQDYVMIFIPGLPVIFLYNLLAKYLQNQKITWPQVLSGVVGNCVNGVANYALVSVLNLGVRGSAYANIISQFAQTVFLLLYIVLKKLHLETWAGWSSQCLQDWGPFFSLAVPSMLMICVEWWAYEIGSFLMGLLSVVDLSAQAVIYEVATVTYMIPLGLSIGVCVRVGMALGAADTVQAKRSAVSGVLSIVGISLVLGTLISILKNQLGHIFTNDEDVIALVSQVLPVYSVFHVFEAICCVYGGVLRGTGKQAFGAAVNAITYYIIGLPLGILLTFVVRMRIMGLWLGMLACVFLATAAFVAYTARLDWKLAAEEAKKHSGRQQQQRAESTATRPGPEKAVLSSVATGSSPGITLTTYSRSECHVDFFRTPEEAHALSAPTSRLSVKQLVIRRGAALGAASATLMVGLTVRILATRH
- Assay details: MATE2-K inhibition in transfected HEK cells
- Assay type: in vitro ADME
- Test context: read-out: IC50, MATE2 K; HEK cells; substrate metformin, reference pyrimethamine
Recorded metric: IC50
Put your answer as a value accompanied by its unit after it.

The recorded IC50 with MATE2-K (Homo sapiens) for CC(=O)c1cc(C(=O)N[C@@H](C)Cn2ccc(-c3ccc(C#N)c(Cl)c3)n2)[nH]n1 [Keto-darolutamide, keto-darolutamide] was 3000 nM

* * *

- Study target: OATP2B1 (Homo sapiens, UniProt O94956)
- Sequence (O94956 whole entry): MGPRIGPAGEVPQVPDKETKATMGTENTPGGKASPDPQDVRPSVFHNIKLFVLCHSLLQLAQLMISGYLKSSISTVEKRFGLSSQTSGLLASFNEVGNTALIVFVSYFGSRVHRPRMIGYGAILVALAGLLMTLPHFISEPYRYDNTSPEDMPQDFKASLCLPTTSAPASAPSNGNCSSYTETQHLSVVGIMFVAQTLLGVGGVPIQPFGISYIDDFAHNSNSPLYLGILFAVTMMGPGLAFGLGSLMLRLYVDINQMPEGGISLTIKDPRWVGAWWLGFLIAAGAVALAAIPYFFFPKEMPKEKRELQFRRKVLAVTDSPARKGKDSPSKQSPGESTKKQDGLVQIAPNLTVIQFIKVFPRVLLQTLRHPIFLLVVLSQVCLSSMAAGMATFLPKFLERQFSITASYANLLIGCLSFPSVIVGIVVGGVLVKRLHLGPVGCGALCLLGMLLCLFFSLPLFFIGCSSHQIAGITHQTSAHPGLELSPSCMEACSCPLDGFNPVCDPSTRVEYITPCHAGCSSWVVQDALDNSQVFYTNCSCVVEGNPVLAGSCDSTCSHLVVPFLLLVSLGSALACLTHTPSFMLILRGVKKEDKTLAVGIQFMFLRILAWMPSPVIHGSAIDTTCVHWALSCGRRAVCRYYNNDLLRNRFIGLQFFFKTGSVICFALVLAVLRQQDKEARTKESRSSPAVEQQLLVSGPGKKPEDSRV
- Assay details: OATP2B1 uptake inhibition in transfected HEK cells
Recorded metric: IC50

The recorded IC50 with OATP2B1 (Homo sapiens, UniProt O94956) for CC(O)c1cc(C(=O)N[C@@H](C)Cn2ccc(-c3ccc(C#N)c(Cl)c3)n2)[nH]n1 (stereo partly shown) [Darolutamide, darolutamide] was > 50 µM

* * *

- Study target: MATE1 (Homo sapiens, UniProt Q96FL8)
- Sequence (Q96FL8 1-570): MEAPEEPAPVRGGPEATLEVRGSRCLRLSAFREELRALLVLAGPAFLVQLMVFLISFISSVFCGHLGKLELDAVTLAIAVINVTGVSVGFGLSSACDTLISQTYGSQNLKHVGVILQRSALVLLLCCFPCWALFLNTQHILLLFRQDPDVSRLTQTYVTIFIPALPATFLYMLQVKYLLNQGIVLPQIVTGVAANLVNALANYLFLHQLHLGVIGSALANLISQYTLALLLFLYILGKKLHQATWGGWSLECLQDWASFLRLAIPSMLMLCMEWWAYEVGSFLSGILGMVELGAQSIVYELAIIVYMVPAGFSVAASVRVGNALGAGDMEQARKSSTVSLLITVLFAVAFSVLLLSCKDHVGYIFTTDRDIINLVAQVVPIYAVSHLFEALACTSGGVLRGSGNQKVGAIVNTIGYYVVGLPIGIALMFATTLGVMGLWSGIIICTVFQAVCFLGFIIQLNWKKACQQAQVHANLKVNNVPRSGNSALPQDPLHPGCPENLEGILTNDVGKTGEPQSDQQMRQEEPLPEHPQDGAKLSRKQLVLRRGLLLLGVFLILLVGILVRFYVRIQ
- Assay details: MATE1 inhibition in transfected HEK cells
- Type: in vitro ADME
- Test context: read-out: IC50, MATE1; HEK cells; substrate metformin, reference cimetidine
Recorded metric: IC50

// CC(=O)c1cc(C(=O)N[C@@H](C)Cn2ccc(-c3ccc(C#N)c(Cl)c3)n2)[nH]n1 [Keto-darolutamide, keto-darolutamide] : IC50 value = > 10 µM

* * *

- Study target: CYP3A4 (Homo sapiens)
- Assay details: CYP3A4 inhibition in human liver microsomes
- Assay type: in vitro ADME
- Test context: read-out: IC50, CYP3A4; human liver microsomes; substrate testosterone
Listing of recorded IC50 by entry.

Solved cases (2 shown):
CC(=O)c1cc(C(=O)N[C@@H](C)Cn2ccc(-c3ccc(C#N)c(Cl)c3)n2)[nH]n1 [Keto-darolutamide, keto-darolutamide]
> 50 µM
C[C@H](O)c1cc(C(=O)N[C@@H](C)Cn2ccc(-c3ccc(C#N)c(Cl)c3)n2)n[nH]1 [(S,S)-darolutamide]
> 50 µM

// C[C@@H](Cn1ccc(-c2ccc(C#N)c(Cl)c2)n1)NC(=O)c1cc([C@@H](C)O)[nH]n1 [(S,R)-darolutamide] : IC50 value = > 50 µM

* * *

- Study target: CYP2C8 (Homo sapiens)
- Sequence (P10632 1-490): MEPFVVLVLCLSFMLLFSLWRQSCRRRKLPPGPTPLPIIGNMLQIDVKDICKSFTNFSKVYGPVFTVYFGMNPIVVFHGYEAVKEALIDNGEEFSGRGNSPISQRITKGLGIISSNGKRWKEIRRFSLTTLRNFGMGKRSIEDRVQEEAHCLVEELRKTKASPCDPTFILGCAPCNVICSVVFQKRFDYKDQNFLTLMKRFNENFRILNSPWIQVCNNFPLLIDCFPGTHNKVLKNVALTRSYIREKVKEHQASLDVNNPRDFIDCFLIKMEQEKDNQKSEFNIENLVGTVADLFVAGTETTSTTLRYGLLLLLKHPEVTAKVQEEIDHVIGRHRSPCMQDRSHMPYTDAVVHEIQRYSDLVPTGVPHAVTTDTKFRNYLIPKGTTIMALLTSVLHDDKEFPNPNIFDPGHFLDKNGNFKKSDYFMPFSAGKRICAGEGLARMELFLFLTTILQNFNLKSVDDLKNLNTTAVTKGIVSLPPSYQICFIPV
- Assay details: CYP2C8 inhibition in human liver microsomes
- Format: in vitro ADME
- Test context: read-out: IC50, CYP2C8; human liver microsomes; substrate amodiaquine
Listing of recorded pIC50 by entry.
Just the number, please; pIC50 means minus log10 of the concentration in mol/L.

C[C@@H](Cn1ccc(-c2ccc(C#N)c(Cl)c2)n1)NC(=O)c1cc([C@@H](C)O)[nH]n1 [(S,R)-darolutamide]
4.44

# input for lookup
The recorded pIC50 with CYP2C8 (Homo sapiens) for C[C@H](O)c1cc(C(=O)N[C@@H](C)Cn2ccc(-c3ccc(C#N)c(Cl)c3)n2)n[nH]1 [(S,S)-darolutamide] was 4.33

* * *

- Study target: UniProt:O60656
- Sequence (O60656 26-530): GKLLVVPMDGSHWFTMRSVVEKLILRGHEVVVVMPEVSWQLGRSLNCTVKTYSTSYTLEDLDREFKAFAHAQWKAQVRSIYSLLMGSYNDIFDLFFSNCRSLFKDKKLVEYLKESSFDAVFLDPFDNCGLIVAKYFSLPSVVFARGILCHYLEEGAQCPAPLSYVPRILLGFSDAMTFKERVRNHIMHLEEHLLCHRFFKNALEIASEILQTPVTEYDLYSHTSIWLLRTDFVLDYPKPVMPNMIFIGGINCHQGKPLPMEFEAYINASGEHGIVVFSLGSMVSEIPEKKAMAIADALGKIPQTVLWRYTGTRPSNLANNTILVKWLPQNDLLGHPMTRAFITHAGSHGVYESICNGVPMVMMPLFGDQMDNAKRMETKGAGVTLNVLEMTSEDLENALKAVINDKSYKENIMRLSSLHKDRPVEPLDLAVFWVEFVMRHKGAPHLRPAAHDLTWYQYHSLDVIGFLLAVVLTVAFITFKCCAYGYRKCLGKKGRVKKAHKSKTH
- Assay details: UGT1A9 inhibition in human liver microsomes
- Format: in vitro ADME
- Test context: read-out: IC50, UGT1A9, substrate propofol
Recorded metric: IC50 (µM)
# number only, unit µM dropped from output

// C[C@@H](Cn1ccc(-c2ccc(C#N)c(Cl)c2)n1)NC(=O)c1cc([C@@H](C)O)[nH]n1 [(S,R)-darolutamide] : IC50 value = 12.5

* * *

- Study target: CYP3A4 (Homo sapiens)
- Assay details: CYP3A4 inhibition in human liver microsomes
- Type: in vitro ADME
- Test context: read-out: IC50, CYP3A4; human liver microsomes; substrate midazolam
Recorded metric: IC50

CC(=O)c1cc(C(=O)N[C@@H](C)Cn2ccc(-c3ccc(C#N)c(Cl)c3)n2)[nH]n1 [Keto-darolutamide, keto-darolutamide]
> 50 µM
C[C@@H](Cn1ccc(-c2ccc(C#N)c(Cl)c2)n1)NC(=O)c1cc([C@@H](C)O)[nH]n1 [(S,R)-darolutamide]
> 50 µM

# input for lookup
// C[C@H](O)c1cc(C(=O)N[C@@H](C)Cn2ccc(-c3ccc(C#N)c(Cl)c3)n2)n[nH]1 [(S,S)-darolutamide] : IC50 value = > 50 µM

* * *

- Study target: CYP3A4 (Homo sapiens, UniProt P08684)
- Sequence (P08684 whole entry): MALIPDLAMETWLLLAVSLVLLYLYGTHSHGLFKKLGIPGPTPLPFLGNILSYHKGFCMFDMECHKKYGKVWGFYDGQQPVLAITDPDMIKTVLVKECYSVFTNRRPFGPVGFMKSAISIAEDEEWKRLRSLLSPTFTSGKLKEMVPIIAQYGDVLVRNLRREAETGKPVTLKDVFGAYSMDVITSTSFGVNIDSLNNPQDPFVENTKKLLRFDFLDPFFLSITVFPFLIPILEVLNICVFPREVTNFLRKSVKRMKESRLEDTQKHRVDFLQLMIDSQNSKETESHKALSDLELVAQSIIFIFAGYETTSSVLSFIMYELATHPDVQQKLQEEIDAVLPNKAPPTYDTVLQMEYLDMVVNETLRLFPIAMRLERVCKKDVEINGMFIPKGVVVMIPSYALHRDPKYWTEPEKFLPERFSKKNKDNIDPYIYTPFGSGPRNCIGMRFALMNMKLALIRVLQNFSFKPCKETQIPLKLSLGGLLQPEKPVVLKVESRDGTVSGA
- Assay details: CYP3A4 inhibition in human liver microsomes
- Assay type: in vitro ADME
- Test context: read-out: IC50, CYP3A4 (with pre-incubation); human liver microsomes; substrate midazolam; 30 min pre-incubation
Listing of recorded IC50 by entry.

Solved cases (3 shown):
C[C@H](O)c1cc(C(=O)N[C@@H](C)Cn2ccc(-c3ccc(C#N)c(Cl)c3)n2)n[nH]1 [(S,S)-darolutamide]
> 50 µM
CC(O)c1cc(C(=O)N[C@@H](C)Cn2ccc(-c3ccc(C#N)c(Cl)c3)n2)[nH]n1 (stereo partly shown) [Darolutamide, darolutamide]
> 100 µM
CC(=O)c1cc(C(=O)N[C@@H](C)Cn2ccc(-c3ccc(C#N)c(Cl)c3)n2)[nH]n1 [Keto-darolutamide, keto-darolutamide]
> 50 µM

# input for lookup
// C[C@@H](Cn1ccc(-c2ccc(C#N)c(Cl)c2)n1)NC(=O)c1cc([C@@H](C)O)[nH]n1 [(S,R)-darolutamide] : IC50 value = > 50 µM

* * *

- Study target: CYP2C19 (Homo sapiens, UniProt P33261)
- Sequence (P33261 whole entry): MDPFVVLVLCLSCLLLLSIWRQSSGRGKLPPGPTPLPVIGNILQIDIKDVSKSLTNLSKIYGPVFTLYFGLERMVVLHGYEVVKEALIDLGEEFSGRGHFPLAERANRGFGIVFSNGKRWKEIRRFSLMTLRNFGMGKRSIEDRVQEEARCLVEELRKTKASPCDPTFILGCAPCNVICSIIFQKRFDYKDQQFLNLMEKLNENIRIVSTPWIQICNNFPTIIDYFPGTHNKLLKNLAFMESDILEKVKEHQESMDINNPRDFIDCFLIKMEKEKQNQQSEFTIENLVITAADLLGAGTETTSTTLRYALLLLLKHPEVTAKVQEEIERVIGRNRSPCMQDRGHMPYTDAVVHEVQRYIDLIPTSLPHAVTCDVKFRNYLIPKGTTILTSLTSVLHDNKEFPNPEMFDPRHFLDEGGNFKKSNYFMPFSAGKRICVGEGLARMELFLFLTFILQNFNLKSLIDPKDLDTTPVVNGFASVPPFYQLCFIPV
- Assay details: CYP2C19 inhibition in human liver microsomes
- Assay type: in vitro ADME
Recorded metric: IC50 (µM)
# number only, unit µM dropped from output

// CC(O)c1cc(C(=O)N[C@@H](C)Cn2ccc(-c3ccc(C#N)c(Cl)c3)n2)[nH]n1 (stereo partly shown) [Darolutamide, darolutamide] : IC50 value = 64.1
